Data credit: ChEMBL document CHEMBL1811869

Task for the reader: assign each of the following compounds its reported selectivity ratio.
assay: Therapeutic index, ratio of CC50 for C8166 cells to EC50 for Human immunodeficiency virus 1; format: cell-based; settings: read-out: Ratio CC50/EC50

Example entries and their recorded answers appear below.
Smiles code: CC(=O)O[C@@]12[C@H](O)[C@@H](C)[C@@]3(O)[C@@H](C=C(CO[C@@H]4O[C@H](CO)[C@@H](O)[C@H](O)[C@H]4O)C[C@]4(O)C(=O)C(C)=C[C@@H]34)[C@@H]1C2(C)C
Measured attribute: selectivity ratio
Recorded measurement: > 17.5
--
Smiles code: CC(=O)O[C@@]12C[C@@H](C)[C@@]3(O)[C@@H](C=C(CO[C@@H]4O[C@H](COC(=O)c5cc(O)c(O)c(O)c5)[C@@H](O)[C@H](O)[C@H]4O)C[C@]4(O)C(=O)C(C)=C[C@@H]34)[C@@H]1C2(C)C
Measured attribute: selectivity ratio
Recorded measurement: > 4
--
Smiles code: Cc1cn([C@H]2C[C@H](N=[N+]=[N-])[C@@H](CO)O2)c(=O)[nH]c1=O
Measured attribute: selectivity ratio
Recorded measurement: 1.02e+06
--
Smiles code: CC(=O)O[C@@]12C[C@@H](C)[C@@]3(O)[C@@H](C=C(CO)C[C@]4(O)C(=O)C(C)=C[C@@H]34)[C@@H]1C2(C)C
Measured attribute: selectivity ratio
Recorded measurement: > 8500
--
Smiles code: CC(=O)O[C@@]12C[C@@H](C)[C@@]3(O)[C@@H](C=C(CO[C@@H]4O[C@H](CO)[C@@H](O)[C@H](O)[C@H]4O)C[C@]4(O)C(=O)C(C)=C[C@@H]34)[C@@H]1C2(C)C
Measured attribute: selectivity ratio
Recorded measurement: > 2.12

# evaluate next
Exercise: Would you kindly share the measured selectivity ratio for CC(=O)OCC1=C[C@H]2[C@@H]3C(C)(C)[C@]3(OC(C)=O)C[C@@H](C)[C@]2(O)[C@@H]2C=C(C)C(=O)[C@@]2(O)C1 ?
Solution: > 367
